Origin of the recorded values: paper PMC13534789

Tested on: MDR1 (P-gp)
Experiment: MDR1-MDCKII permeability assay
Assay type: in vitro ADME
Conditions: dog, MDCK-MDR1, pH 7.4, MDR1-MDCKII; read-out: % Recovery (Overall) - Basal to Apical
Experimental: MDR1‐MDCKII assay was processed by Sai Life Sciences Pvt. […] Permeability was measured in duplicate (n = 2) in both A→B and B→A directions. […] Test and reference compounds were quantified by LC‐MS/MS analysis based on the peak area ratio of analyte/internal standard (IS). The efflux ratio of each compound was calculated. […] After the transport assay, Lucifer yellow fluorescence rejection assay was performed to confirm the integrity of the cell monolayer.
observation-type: recovery at 2 h, 2 µM (%)
Report as a plain number; the unit % is understood.

Ask | Which recovery at 2 h, 2 µM reading was recorded for the compound COc1cccc(NC(=O)Nc2nc3ccc(C(=O)N4CCOCC4)cc3s2)c1 ?
Reply | 141

Ask | For N#Cc1cccc(NC(=O)Nc2nc3ccc(C(=O)N4CCOCC4)cc3s2)c1 , what is its reported recovery at 2 h, 2 µM?
Reply | 106

* * *

For each record, write down the corresponding half-life.
test: IV and PO pharmacokinetics in mice; type: in vivo, C57BL/6 male mice; conditions: male, C57BL/6, 1 mg/kg; mouse plasma, IV, 1 mpk
Response body: numeric value in min, unit text excluded.

Ask | Look up half-life: COc1cccc(NC(=O)Nc2nc3ccc(C(=O)N4CCOCC4)cc3s2)c1 [compound 0152]
Reply | 25.2

Ask | # input compound: N#Cc1cccc(NC(=O)Nc2nc3ccc(C(=O)N4CCOCC4)cc3s2)c1 [compound 0043] ; wanted: its half-life
Reply | 9.6

* * *

tested on: Aβ42; assay: Aβ42 ELISA of conditioned media, iPSC-derived neurons; format: cell-based, human; conditions: Homo sapiens, Neuron, 120 h; sAD2.3 neurons, 5 days treatment, ELISA; read-out: IC50, relative Aβ42 levels in conditioned media
observation-type: IC50 (nM)
Numeric answer only, unit nM assumed.

Ask | May I ask what IC50 has been recorded for N#Cc1cccc(NC(=O)Nc2nc3ccc(C(=O)N4CCOCC4)cc3s2)c1 ?
Reply | 1800

* * *

test system: Aβ42; assay: Aβ42 ELISA of conditioned media, iPSC-derived neurons; format: cell-based, human; conditions: Homo sapiens, Neuron; SAD2.3-Ns and AG27606-Ns; read-out: IC50 values, Aβ42 secretion
pIC50: −log10 of the molar value.
observation-type: pIC50

Ask | Which value of pIC50 has been reported for N#Cc1cccc(NC(=O)Nc2nc3ccc(C(=O)N4CCOCC4)cc3s2)c1 in the records?
Reply | 5.68 to 5.74

* * *

Would you kindly list Tmax for each of these compounds?
experiment: IV and PO pharmacokinetics in mice; type: in vivo, C57BL/6 male mice; details: male, C57BL/6, 10 mg/kg; mouse plasma, PO, 10 mpk
Provide the reading as a plain figure in min.

Ask | May I ask what Tmax has been recorded for COc1cccc(NC(=O)Nc2nc3ccc(C(=O)N4CCOCC4)cc3s2)c1 [compound 0152] ?
Reply | 30

Ask | Give its Tmax value. Item: N#Cc1cccc(NC(=O)Nc2nc3ccc(C(=O)N4CCOCC4)cc3s2)c1 [compound 0043]
Reply | 15

* * *

assay: Brain/plasma ratio in mice; type: in vivo, male C57BL/6 mice; conditions: male, C57BL/6, brain, 10 mg/kg; mouse, PO, 10 mpk; read-out: B/P-Kp (brain-to-plasma partition coefficient)
observation-type: Kp
A bare number is all that is needed in reply.

Ask | Given the entry COc1cccc(NC(=O)Nc2nc3ccc(C(=O)N4CCOCC4)cc3s2)c1 , report its measured Kp.
Reply | 0.03

* * *

assay: IV and PO pharmacokinetics in mice; type: in vivo, C57BL/6 male mice; settings: male, C57BL/6, 10 mg/kg; mouse plasma, PO, 10 mpk
observation-type: AUC(0-t)
Give me the value, and tack the unit on after it.

Ask | Quick one: AUC(0-t) for N#Cc1cccc(NC(=O)Nc2nc3ccc(C(=O)N4CCOCC4)cc3s2)c1 [compound 0043] ?
Reply | 107 ng·h/mL

Ask | Please report the recorded AUC(0-t) for COc1cccc(NC(=O)Nc2nc3ccc(C(=O)N4CCOCC4)cc3s2)c1 [compound 0152] .
Reply | 624 ng·h/mL
